The origin of these recorded values is paper PMC11762167.

- experimental target: hGPR17L (Homo sapiens, UniProt Q13304)
- Sequence (Q13304 whole entry): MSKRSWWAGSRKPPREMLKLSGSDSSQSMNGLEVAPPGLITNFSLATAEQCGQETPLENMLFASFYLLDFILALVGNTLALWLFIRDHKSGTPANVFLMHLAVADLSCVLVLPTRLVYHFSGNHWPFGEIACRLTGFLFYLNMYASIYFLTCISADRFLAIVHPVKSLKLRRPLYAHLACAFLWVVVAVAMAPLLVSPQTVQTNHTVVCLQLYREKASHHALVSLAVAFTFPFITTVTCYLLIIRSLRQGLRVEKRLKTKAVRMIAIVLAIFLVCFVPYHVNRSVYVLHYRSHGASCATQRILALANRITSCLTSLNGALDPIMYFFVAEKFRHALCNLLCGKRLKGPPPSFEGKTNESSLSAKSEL
- protocol description: Endpoint cAMP (HTRF) in GLUTag cells expressing hGPR17L
- Format: cell-based
- Set-up: host or cells: GLUTag cells (murine enteroendocrine line), adenoviral transduction
- test parameters: 10 µM forskolin, GLUTag hGPR17L; read-out: EC50, reversal of inhibition of forskolin-stimulated cAMP at higher concentrations
attribute measured: EC50 (µM)
Hi! Could you send only the number? It should be in µM, unit omitted.

**Query** Identify EC50 associated with the molecule O=C(O)CCc1c(C(=O)O)[nH]c2cc(Cl)cc(Cl)c12
**Result** 12
